The reported measurements were obtained from patent US20240083886A1.

- tested-on: GLP-1 Receptor (Homo sapiens)
- Sequence (P43220 24-463, species assumed): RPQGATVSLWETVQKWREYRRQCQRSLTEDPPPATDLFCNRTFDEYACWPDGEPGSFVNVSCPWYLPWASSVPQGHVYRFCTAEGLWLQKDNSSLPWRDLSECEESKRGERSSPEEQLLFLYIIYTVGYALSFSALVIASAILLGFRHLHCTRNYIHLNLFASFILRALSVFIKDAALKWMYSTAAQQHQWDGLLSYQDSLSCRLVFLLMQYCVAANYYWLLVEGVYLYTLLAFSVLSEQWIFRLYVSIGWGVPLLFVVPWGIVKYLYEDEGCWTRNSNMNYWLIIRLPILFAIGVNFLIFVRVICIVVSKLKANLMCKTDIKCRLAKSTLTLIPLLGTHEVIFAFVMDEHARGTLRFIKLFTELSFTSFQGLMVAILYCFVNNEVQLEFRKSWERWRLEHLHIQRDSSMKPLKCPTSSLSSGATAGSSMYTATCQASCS
- procedure-details: GLP-1R agonist cAMP stimulation assay
- Format: cell-based
- recorded-conditions: HEK293/GLP1R/CRE-LUC cells, cAMP dynamic 2 Kit (Cisbio), 30 min incubation at 37° C.; read-out: EC50
Entries annotated with measured EC50
Answer with a number only, understood to be in nM.

Task: Return value of EC50 for input Fc1cc2c(cc1-c1nnc(C(F)(F)F)[nH]1)nc(CN1CCC(Oc3ccnc(Cc4ccc(Cl)cc4)n3)CC1)n2C[C@@H]1CCO1 [Compound 122a] , no commentary.
Result: 0.54

----------
- tested-on: UniProt:P43220
- procedure-details: GLP-1R agonist cAMP stimulation assay
- Assay type: cell-based
- recorded-conditions: HEK293/GLP1R/CRE-LUC cells, cAMP dynamic 2 Kit (Cisbio), 30 min incubation at 37° C.; read-out: EC50
Entries annotated with measured pEC50
Interpret pEC50 as the negative base-10 log of the concentration measured in mol/L.

These recorded examples may help you get a feel for the data.
# compound, pEC50
data = [
    ("Fc1cc(Cl)ccc1Cc1ncc(F)c(OC2CCN(Cc3nc4cc(-c5nnc(C(F)(F)F)[nH]5)ncc4n3C[C@@H]3CCO3)CC2)n1 [Compound 168a]", 10.09),
    ("Fc1cc(Cl)ccc1Cc1cccc(OC2CCN(Cc3nc4cc(-c5nnc(C(F)(F)F)[nH]5)nnc4n3C[C@@H]3CCO3)CC2)n1 [Compound 181a]", 9.24),
    ("FC(F)(F)c1cnn(Cc2cccc(OC3CCN(Cc4nc5cc(-c6nnc(C(F)(F)F)[nH]6)ncc5n4C[C@@H]4CCO4)CC3)n2)c1 [Compound 186a]", 8.36),
    ("O=C(Nc1ccc2c(c1)nc(CN1CCC(Oc3ccnc(Cc4ccc(Cl)cc4F)n3)CC1)n2C[C@@H]1CCO1)c1ccc(C2CC2)nc1 [Compound 117a]", 8.23),
    ("Fc1cc(Cl)ccc1COc1cccc(N[C@@H]2CCN(Cc3nc4cc(-c5nnc(C(F)(F)F)[nH]5)ncc4n3C[C@@H]3CCO3)C2)n1 [Compound 174a]", 8.47),
]

Continue with the compound presented below.
Task: Return value of pEC50 for input Fc1cc(Cl)ccc1Cc1cccc(OC2CCN(Cc3nc4cc(-c5nnc(C(F)(F)F)[nH]5)ncc4n3C3CCOCC3)CC2)n1 , no commentary.
Result: 7.39

----------
- tested-on: GLP-1 Receptor (Homo sapiens)
- procedure-details: GLP-1R agonist cAMP stimulation assay
- Type: cell-based
experimental-readout: log10(EC50) (log10 of the value in nM)
Reminder: these figures are log10 of reported EC50, in nM before transformation.

These recorded examples may help you get a feel for the data.
# molecule, log10(EC50)
data = [
    ("Fc1cc(Cl)ccc1Cc1ncc(F)c(OC2CCN(Cc3nc4cc(-c5nnc[nH]5)ncc4n3C[C@@H]3CCO3)CC2)n1 [Compound 169a]", 0.18),
    ("COCc1nnc(-c2cc3nc(CN4CCC(Oc5cccc(Cc6ccc(Cl)cc6F)n5)CC4)n(C[C@@H]4CCO4)c3cn2)[nH]1 [Compound 183a]", 0.52),
    ("Fc1cc(Cl)ccc1Cc1nccc(OC2CCN(Cc3nc4cc(/C=C/c5cccnc5)ccc4n3C[C@@H]3CCO3)CC2)n1 [Compound 118a]", 1.64),
    ("CCOCCn1c(CN2CCC(Oc3ccnc(Cc4ccc(Cl)cc4)n3)CC2)nc2cc(-c3nnc(C(F)(F)F)[nH]3)cnc21 [Compound 123]", 0.76),
    ("Cc1n[nH]c(-c2ccc3c(c2)nc(CN2CCC(Oc4ccnc(Cc5ccc(Cl)cc5)n4)CC2)n3C[C@@H]2CCO2)n1 [Compound 126a]", -0.49),
    ("FC(F)(F)c1nnc(-c2cnc3c(c2)nc(CN2CCC(Oc4ccnc(Cc5ccc(Cl)cc5)n4)CC2)n3C[C@@H]2CCO2)[nH]1 [Compound 120a]", -0.77),
]

Continue with the molecule presented below.
Task: Return value of log10(EC50) for input Cc1nnc(-c2cc3nc(CN4CCC(Oc5nc(Cc6ccc(Cl)cc6)ncc5F)CC4)n(C[C@@H]4CCO4)c3cn2)[nH]1 [Compound 163a] , no commentary.
Result: -0.60
